All figures here come from patent US8318761B2.

# EXPERIMENT DESCRIPTION: Pharmacokinetical investigations after intravenous or oral administration
# Format: in vivo
# MEASUREMENT PARAMETERS: iv; male Wistar rat, 1.3 mg/kg i.v., solution in rat plasma with 1% DMSO, 2 ml/kg
QUANTITY KIND: half-life
Numeric answer plus unit only.

Entry "N#CC1(C(=O)Nc2cc(F)cc(NS(=O)(=O)c3ccc(-c4noc(-c5cccc(N)n5)n4)cc3)c2)CC1" — recorded half-life = 256 min

====

# Test system: HCMV
# EXPERIMENT DESCRIPTION: Anti-HCMV cytopathogenicity test (CPE inhibition)
# Format: cell-based, human cytomegalovirus
# MEASUREMENT PARAMETERS: selectivity index = CC50 (NHDF)/EC50 (HCMV)
SI HCMV below 3000 gives NOT MET; SI HCMV at or above it gives MET.

These recorded examples may help you get a feel for the data.
Cc1c(NC(=O)C2(C#N)CC2)cccc1NS(=O)(=O)c1ccc(-c2noc(-c3cccc(N)n3)n2)cc1 = MET
Cl.N#CC1(C(=O)Nc2cccc(NS(=O)(=O)c3ccc(C#Cc4cccc(N)n4)cc3)c2)CC1 = NOT MET
N#CC1(C(=O)Nc2cccc(NS(=O)(=O)c3ccc(-c4noc(-c5cccc(N)n5)n4)cc3)c2)CC1 = MET
CC(=O)Nc1cccc(-c2nc(-c3ccc(S(=O)(=O)Nc4cc(F)cc(NC(=O)C5(C#N)CC5)c4)cc3)no2)n1 = NOT MET

## Task Assess whether reported SI HCMV for "N#CC1(C(=O)Nc2cc(F)cc(NS(=O)(=O)c3ccc(-c4noc(-c5cccc(N)n5)n4)cc3)c2)CC1" sits at 3000 or higher.
## Result MET
